Source of measurements: ChEMBL document CHEMBL5674860

Tested on: Colon cancer organoid
Test: Optimized Dual-Glo assay to identify co-culture induced drug vulnerabilities using donated chemical probes and chemogenomics kinase set in O14 CRC organoid and F14 CAF mono and co-culture. […] Cell viability is reported both mono and co-culture models.
Type: functional, Homo sapiens
Set-up: dose or concentration left out as unconfirmed
Settings: Culture type Mono-Culture; Transduced with Renilla-dsRed lentivirus
Observation type: Cell Viability (%)
One number for each entry, in %.

Consider the reported Cell Viability for these compounds:
{"Molecule smiles": "CCC(=O)N[C@H]1CC[C@@H](C(=O)N(C)c2ccc(-c3nc4ccccc4o3)cc2)C1", "Cell Viability / %": 108.528}
{"Molecule smiles": "CC[C@H](CO)Nc1nc(NCc2ccccc2)c2ncn(C(C)C)c2n1", "Cell Viability / %": 84.912}
{"Molecule smiles": "Cc1ccc(-c2ccc3c(ccc4sc5c(c43)NC[C@@H](C)NC5=O)n2)cn1", "Cell Viability / %": 70.7861}
{"Molecule smiles": "CC(C)(O)c1cncc(-c2nc3ccc(F)cc3n2C2CC2)c1", "Cell Viability / %": 98.7246}
{"Molecule smiles": "COc1cc(C(=O)O)ncc1C#Cc1ccccc1NS(=O)(=O)c1cccc2c(N(C)C)ccnc12", "Cell Viability / %": 88.0348}
{"Molecule smiles": "Cc1c(N2CCNCC2)nc2ccc(Br)cc2c1C(=O)NC[C@H](CCC(=O)O)c1ccccc1Cl", "Cell Viability / %": 88.9346}
{"Molecule smiles": "COc1cc2c(cc1NS(=O)(=O)c1ccc(Br)cc1C)n(C)c(=O)n2C", "Cell Viability / %": 108.084}
{"Molecule smiles": "Nc1nc(NCc2ccccc2)nc(-c2ccccc2CO)n1", "Cell Viability / %": 105.714}

// Cell Viability value for Cc1cc(=O)n(C)c2cc(N3C(=O)CC[C@H](NS(=O)(=O)CC(C)C)[C@H]3c3ccc(Cl)cc3)ccc12 : 116.483
